Just for reference, patent US20240252488A1 is where these values come from.

Measured Degradation assay (Degradation %) 1 μM accompanies every entry in the list below.
- experimentalTarget: MLKL (Homo sapiens)
- Sequence (Q8NB16 whole entry): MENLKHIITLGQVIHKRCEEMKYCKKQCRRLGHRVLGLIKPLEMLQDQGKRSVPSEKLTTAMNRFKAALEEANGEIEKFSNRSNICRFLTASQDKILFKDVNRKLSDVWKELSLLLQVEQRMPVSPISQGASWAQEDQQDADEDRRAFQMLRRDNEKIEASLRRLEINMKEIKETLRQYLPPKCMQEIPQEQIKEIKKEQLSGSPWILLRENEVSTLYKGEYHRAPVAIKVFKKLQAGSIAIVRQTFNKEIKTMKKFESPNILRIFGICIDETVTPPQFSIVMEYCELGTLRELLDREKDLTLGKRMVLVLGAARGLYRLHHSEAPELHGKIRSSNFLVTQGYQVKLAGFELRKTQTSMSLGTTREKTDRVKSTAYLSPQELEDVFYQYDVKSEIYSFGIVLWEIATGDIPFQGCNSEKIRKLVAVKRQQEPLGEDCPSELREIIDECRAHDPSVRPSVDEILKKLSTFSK
- assayExplanation: MLKL degradation assay in HepG2 cell line (western blot)
- Assay type: cell-based
- Parameters: endogenous in cells; host or cells: HepG2 or HaCaT
- particulars: compound 1 μM; cell line not given

compound	Degradation assay (Degradation %) 1 μM
Nc1ncc(-c2ccc(N3CCN(CCOCCOCCNC(=O)CNc4ccc5c(c4)C(=O)N(C4CCC(=O)NC4=O)C5=O)CC3)nc2)nc1C(=O)OC(C(=O)Nc1ccc(F)cc1)c1ccccc1 (stereo not shown)	38.65
Nc1ncc(-c2cnn(C3CCN(CCOC4CCN(C(=O)CCc5cccc6c5C(=O)N(C5CCC(=O)NC5=O)C6=O)CC4)CC3)c2)nc1C(=O)O[C@@H](C(=O)Nc1ccc(F)cc1)c1ccccc1 (stereo partly shown)	88.62
Nc1ncc(-c2cnn(C3CCN(CCCN4CCN(c5ccc6c(c5)C(=O)N(C5CCC(=O)NC5=O)C6=O)CC4)CC3)c2)nc1C(=O)N[C@@H](C(=O)Nc1ccc(F)cc1)c1ccccc1 (stereo partly shown)	19.04
Nc1ncc(-c2cnn(C3CCN(C(=O)CCC4CCN(C(=O)CNc5ccc6c(c5)C(=O)N(C5CCC(=O)NC5=O)C6=O)CC4)CC3)c2)nc1C(=O)O[C@@H](C(=O)Nc1ccc(F)cc1)c1ccccc1 (stereo partly shown)	91.95
Nc1ncc(-c2cnn(C3CCN(C(=O)C4CCN(C(=O)C5CCN(c6ccc7nnn(C8CCC(=O)NC8=O)c(=O)c7c6)CC5)CC4)CC3)c2)nc1C(=O)O[C@@H](C(=O)Nc1ccc(F)cc1)c1ccccc1 (stereo partly shown)	85.29
Nc1ncc(-c2cnn(C3CCN(CCCCCCCCCCNC(=O)C4CCN(c5ccc6c(c5)C(=O)N(C5CCC(=O)NC5=O)C6=O)CC4)CC3)c2)nc1C(=O)O[C@@H](C(=O)Nc1ccc(F)cc1)c1ccccc1 (stereo partly shown)	62.45
COc1ccc(C(=O)N2CCN(CCCN3CCC(n4cc(-c5cnc(N)c(C(=O)O[C@@H](C(=O)Nc6ccc(F)cc6)c6ccccc6)n5)cn4)CC3)CC2)cc1N1CCC(=O)NC1=O	60.39
Nc1ncc(-c2cnn(C3CCN(CCCN4CCN(C(=O)CNc5cccc6c5C(=O)N(C5CCC(=O)NC5=O)C6=O)CC4)CC3)c2)nc1C(=O)OC(C(=O)Nc1ccc(F)cc1)c1ccccc1 (stereo not shown)	64.55
Nc1ncc(-c2cnn(C3CCN(C(=O)CC4CCN(C(=O)CNc5cccc6c5C(=O)N(C5CCC(=O)NC5=O)C6=O)CC4)CC3)c2)nc1C(=O)O[C@@H](C(=O)Nc1ccc(F)cc1)c1ccccc1 (stereo partly shown)	71.36
Nc1ncc(-c2cnn(C3CCN(CCC4CCN(C(=O)CNc5cccc6c5C(=O)N(C5CCC(=O)NC5=O)C6=O)CC4)CC3)c2)nc1C(=O)O[C@@H](C(=O)Nc1ccc(F)cc1)c1ccccc1 (stereo partly shown)	69.49
Nc1ncc(-c2cnn(C3CCN(CC4CCN(CC(=O)NC5CCN(c6ccc7c(c6)C(=O)N(C6CCC(=O)NC6=O)C7=O)CC5)CC4)CC3)c2)nc1C(=O)OC(C(=O)Nc1ccc(F)cc1)c1ccccc1 (stereo not shown)	23.54
Nc1ncc(-c2cnn(C3CCN(CC4CCN(CC(=O)NCCCNc5cccc6c5C(=O)N(C5CCC(=O)NC5=O)C6=O)CC4)CC3)c2)nc1C(=O)OC(C(=O)Nc1ccc(F)cc1)c1ccccc1 (stereo not shown)	45.01
Nc1ncc(-c2cnn(C3CN(CC4CCN(C(=O)CNc5ccc6c(c5)C(=O)N(C5CCC(=O)NC5=O)C6=O)CC4)C3)c2)nc1C(=O)O[C@@H](C(=O)Nc1ccc(F)cc1)c1ccccc1 (stereo partly shown)	87.25
